# tgt: T1, human GIP receptor (human) (UniProt P48546)
# T1 sequence (looked up): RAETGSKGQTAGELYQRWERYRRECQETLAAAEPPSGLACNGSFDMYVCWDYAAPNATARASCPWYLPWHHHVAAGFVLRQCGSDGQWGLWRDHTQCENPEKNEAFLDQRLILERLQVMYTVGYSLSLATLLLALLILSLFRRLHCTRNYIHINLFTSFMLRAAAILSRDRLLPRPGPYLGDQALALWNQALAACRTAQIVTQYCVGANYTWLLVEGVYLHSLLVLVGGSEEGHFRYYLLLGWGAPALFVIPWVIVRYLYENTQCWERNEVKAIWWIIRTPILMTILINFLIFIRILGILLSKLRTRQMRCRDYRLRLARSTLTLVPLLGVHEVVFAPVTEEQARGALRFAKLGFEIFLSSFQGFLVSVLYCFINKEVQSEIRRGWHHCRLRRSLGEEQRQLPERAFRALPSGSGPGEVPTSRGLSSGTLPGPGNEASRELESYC
# assay.notes: cell-based or functional assay
Each entry below carries its reported cAMP EC50.
Write your answer as a measured quantity: the number, then the unit.

As a guide, the following entries are already answered.
IP176 (Fc fusion) YSEGTFTSDVSSYMERQAISEFIAWLLKGPAAAGGSGSTASSGSGSATGGGGAATHTCPPCPAPEF : 420 pM
IP209 (Fc fusion) YSEGTFTSDYSSYMERQAIDEFIAWLLKGGAAAGGSGSTASSGSGSATGGGGAATHTCPPCPAPEF : 58 pM
IP347 (Fc fusion) YSEGTFTSDYSKLLERQAIDEFIAILLKGGGGGGGSGGGGSGGGGSGGGGSGGGGSGGGGSA : 13 pM
IP349 (Fc fusion) YSEGTFTSDYSKLLERQAIDEFIANLLKGGGGGGGSGGGGSGGGGSGGGGSGGGGSGGGGSA : 7.9 pM

Switching to the query record.
Exercise: Look at this binder and give its reported cAMP EC50. IP306 (Fc fusion) YSEGTFTSDYSKLLERQAIDEFIAWLLKGGAAAGGSGSTASSGSGSATGGGGAATHTCPPC
Solution: 11 pM
